method.notes: Human pregnane X receptor (PXR) small molecule agonists, qHTS cell viability counter screen (AID 1346977); note: nearly all actives have a fitted effect of over 50% in size; note: potency is the fitted concentration of half-maximal effect
measurement.parameters: PXR-Luc HepG2 viability, CellTiter-Fluor, 24 h; series mostly up to 92.4 µM
Records with an inconclusive call do not appear. The source made the active and inactive calls. Calls come from the whole dose curve; as a rule, active = well fitted cell-killing curve with a large enough effect in the repeat runs; inconclusive = weak or mixed curves, or effect the other way; inactive = flat fitted curve, though single readings scatter.
quantity.kind: Potency

compound	observed.measurement
c1ccc2c(c1)OCC(C1=NCCN1)O2 (stereo unspecified)	26.6 µM (active)
CCN(CC)c1c([N+](=O)[O-])cc(C(F)(F)F)c(N)c1[N+](=O)[O-]	inactive
O=C1NCN(c2ccccc2)C12CCN(CC1COc3ccccc3O1)CC2 (stereo unspecified)	inactive
Cc1cc(C)c(C2=C(OC(=O)CC(C)(C)C)C3(CCCC3)OC2=O)c(C)c1	inactive
Fc1cccc(Cl)c1CCl	inactive
O=c1[nH]c2ccccc2n1CCCN1CCC(n2c(=O)[nH]c3cc(Cl)ccc32)CC1	26.6 µM (active)
CCCCCCCCCCBr	inactive
CN(C)C1CSSSC1	inactive

GET /values?readout=Potency&item= `O=c1ssc(Cl)c1Cl`
inactive

Consider next the compound `O=[N+]([O-])O.O=[N+]([O-])O.[Cd]` in the same way.
5.45 µM (active)

Also `Clc1ccc(-c2ccccc2)cc1` , if possible.
inactive

Next compound up: `Cc1ccc(C(=O)Cl)cc1`
inactive

Another: `O=C/C(Cl)=C(/Cl)C(=O)O`
inactive

* * *

method.notes: qHTS RealTime-Glo MT Cell Viability Assay in HepG2 cells - 0 hour (AID 1224889); note: nearly all actives have a fitted effect of over 50% in size
measurement.parameters: RealTime-Glo luminescence; series mostly up to 76.8 µM
Inconclusive results are not listed. The source made the active and inactive calls. The call rests on the fitted dose curve; in most records, active means well fitted cell-killing curve with a large enough effect in the repeat runs; inconclusive means weak or mixed curves, or effect the other way; inactive means flat fitted curve, though single readings scatter.
Could you please pick one outcome from this set? active, inactive

compound	qualitative.label
CCCCCCCCCCCCCCCCCCn1cc[n+](C)c1	inactive
Cc1cc(C(F)(C(F)(F)F)C(F)(F)F)ccc1NC(=O)c1cccc(I)c1C(=O)NC(C)(C)CS(C)(=O)=O	inactive
CC(C)N1C(=O)N(c2ccccc2)CSC1=NC(C)(C)C	inactive
C=CC(=O)OCC(COC(=O)C=C)(COC(=O)C=C)COC(=O)C=C	inactive
CC(=O)[O-].CC(=O)[O-].O.O.[Cd+2]	inactive

What did this assay record as the result for `Clc1ccc(-c2ccc(Cl)c(Cl)c2Cl)c(Cl)c1Cl` ?
inactive

Follow-up entry: `Cc1cc(N=Nc2ccccc2C)ccc1N`
inactive

Do the same for `Oc1ccc(C2(c3ccc(O)cc3)c3ccccc3-c3ccccc32)cc1` please
inactive

What do you have for `COc1ccc([N+](=O)[O-])cc1O` ?
inactive

* * *

method.notes: qHTS assay to identify small molecule that activate the aryl hydrocarbon receptor (AhR) signaling pathway - cell viability counter screen (AID 743086); note: nearly all actives have a fitted effect of over 45% in size
measurement.parameters: HepG2-AhR-luc viability, CellTiter-Fluor, 24 h; series mostly up to 70.3 µM
Inconclusive results are not listed. Calls of active or inactive are those of the source. The call rests on the fitted dose curve; in most records, active means well fitted cell-killing curve with a large enough effect in the repeat runs; inconclusive means weak or mixed curves, or effect the other way; inactive means flat fitted curve, though single readings scatter.
The reply should be one of these categories: 1 (yes) = active, 0 (no) = inactive

molecule	qualitative.label
C[C@]12CC[C@H]3[C@@H](CCC4=CC(=O)CC[C@@]43C)[C@@H]1CC[C@@H]2O	0 (no)
CC(C)CCCCCOC(=O)c1ccccc1C(=O)OCCCCCC(C)C	0 (no)
ClC(Cl)=C(c1ccc(Cl)cc1)c1ccc(Cl)cc1	0 (no)
Cc1cc(C(C)(C)c2cc(C)c(O)c(C)c2)cc(C)c1O	1 (yes)

Recorded test call requested for `N#CCCSCCC#N`
0 (no)

Please answer likewise for `[CH3][Hg][Cl]`
0 (no)

Try the molecule `CC(C)(C)OO`
0 (no)

* * *

method.notes: qHTS assay for identifying genotoxic compounds that show differential cytotoxicity against isogenic chicken DT40 cell lines with known DNA damage response pathways - Rad54/Ku70 mutant cell line (AID 743015); note: nearly all actives have a fitted effect of over 60% in size; note: potency is the fitted concentration of half-maximal effect
measurement.parameters: DT40 Rad54/Ku70 mutant viability, CellTiter-Glo, 40 h; series mostly up to 66.8 µM
Inconclusive results are not listed. Activity calls are given as the source filed them. Calls follow the shape of the dose curve; as a rule, active = well fitted cell-killing curve with a large enough effect in the repeat runs; inconclusive = weak or mixed curves; inactive = no such curve, though single readings can be large or run the other way.
quantity.kind: Potency

For orientation, consider the following solved cases.
molecule	observed.measurement
O=[N+]([O-])c1ccc2ccc3cccc4ccc1c2c34	inactive
O=C(CCl)C(Cl)Cl	4.9 µM (active)
CC(C)CC(C)(c1ccc(O)cc1)c1ccc(O)cc1	54.6 µM (active)
COC12CC[C@@]3(C[C@@H]1C(C)(O)C(C)(C)C)[C@H]1Cc4ccc(O)c5c4[C@@]3(CCN1CC1CC1)[C@H]2O5 (stereo partly drawn)	48.2 µM (active)
CCOP(=O)(NC(C)C)Oc1ccc(SC)c(C)c1 (stereo not drawn)	40.1 µM (active)
O=C(Nc1ccc2[nH]ccc2c1)c1cc2cc(F)ccc2n1Cc1cccc(F)c1	17.2 µM (active)

Could you tell me which Potency is on file for C=CCC1=C(C)C(OC(=O)C2C(C=C(C)C)C2(C)C)CC1=O (stereo not drawn) ?
18.7 µM (active)

Can you handle `CC(C)OC(=O)C(O)(c1ccc(Cl)cc1)c1ccc(Cl)cc1` next?
7.7 µM (active)

Same lookup for `O=C(O)c1cc[c]([Hg][Cl])cc1` , please.
1.54 µM (active)

* * *

method.notes: qHTS assay to identify small molecule antagonists of the estrogen related receptor (ERR) signaling pathway from Tox21 library - cell viability counter screen (AID 1224834); note: nearly all actives have a fitted effect of over 30% in size; note: potency is the fitted concentration of half-maximal effect
measurement.parameters: ERR reporter cells viability, CellTiter-Fluor, 17.5 h; series mostly up to 92.4 µM
Results filed as inconclusive are left out. Calls of active or inactive are those of the source. Calls follow the shape of the dose curve; as a rule, active = well fitted cell-killing curve with a large enough effect in the repeat runs; inconclusive = weak or mixed curves; inactive = flat fitted curve, though single readings scatter.
quantity.kind: Potency

CC[C@H](C)[C@H]1O[C@]2(C=C[C@@H]1C)C[C@@H]1C[C@@H](C/C=C(\C)[C@@H](O[C@H]3C[C@H](OC)[C@@H](O[C@H]4C[C@H](OC)[C@@H](O)[C@H](C)O4)[C@H](C)O3)[C@@H](C)/C=C/C=C3\CO[C@@H]4[C@H](O)C(C)=C[C@@H](C(=O)O1)[C@]34O)O2 16.1 µM (active)
CCS(=O)(=O)c1cccnc1S(=O)(=O)NC(=O)Nc1nc(OC)cc(OC)n1 inactive
Clc1ccc(-c2ccc(Cl)c(Cl)c2Cl)c(Cl)c1Cl inactive
FC(Cl)(Cl)Cl inactive
Oc1ccc(C2(c3ccc(O)cc3)CCCCC2)cc1 57.9 µM (active)

Consider the compound `O=C(Cl)c1ccc(Cl)cc1` and give its measured Potency.
inactive

* * *

method.notes: qHTS assay to identify small molecule antagonists of the androgen receptor (AR) signaling pathway using the MDA cell line - cell viability counter screen (AID 743041; note: nearly all actives have a fitted effect of over 45% in size)
measurement.parameters: MDA-kb2 viability, CellTiter-Fluor, 16 h, cells co-treated with R1881 androgen agonist; series mostly up to 70.3 µM
Description: National Center for Advancing Translational Sciences [NCATS] NIH Chemical Genomics Center [NCGC] U.S. Environmental Protection Agency [EPA] National Institutes of Environmental Health Sciences [NIEHS] National Toxicology Program [NTP] U.S. Food and Drug Administration [FDA] Androgen receptor (AR), a nuclear hormone receptor, plays a critical role in AR-dependent prostate cancer and other androgen related diseases. […]
Records with an inconclusive call do not appear. Active and inactive are the calls of the source. Calls follow the shape of the dose curve; as a rule, active = well fitted cell-killing curve with a large enough effect in the repeat runs; inconclusive = weak or mixed curves, or effect the other way; inactive = flat fitted curve, though single readings scatter.
Allowed answers: true for active, false for inactive

Here's what some known entries look like.
molecule	qualitative.label
c1ccc(Nc2ccc3ccccc3c2)cc1	false
C1CCC2CCCCC2C1 (stereo not drawn)	false
CC(Cc1ccc(C(C)(C)C)cc1)CN1C[C@@H](C)O[C@@H](C)C1 (stereo partly drawn)	false
O=c1oc2ccccc2c(O)c1Cc1c(O)c2ccccc2oc1=O	false
Nc1ccc(Cc2ccc(N)c(Cl)c2)cc1Cl	false

Kindly provide the recorded test outcome for the following molecule: `O=[N+]([O-])c1ccc2ccc3cccc4ccc1c2c34`
false

# iterate: `CC(=O)/C=C/c1ccc2c(c1)OCO2`
false

* * *

method.notes: qHTS assay to identify small molecule that activate the aryl hydrocarbon receptor (AhR) signaling pathway - cell viability counter screen (AID 743086); note: nearly all actives have a fitted effect of over 45% in size
measurement.parameters: HepG2-AhR-luc viability, CellTiter-Fluor, 24 h; series mostly up to 70.3 µM
Inconclusive results are not listed. The source made the active and inactive calls. Calls come from the whole dose curve; as a rule, active = well fitted cell-killing curve with a large enough effect in the repeat runs; inconclusive = weak or mixed curves, or effect the other way; inactive = flat fitted curve, though single readings scatter.
Allowed answers: T for active, F for inactive

molecule	qualitative.label
CCOc1cc(C(C)(C)C)ccc1C1COC(c2c(F)cccc2F)=N1 (stereo unspecified)	F
Cc1cc(C(F)(C(F)(F)F)C(F)(F)F)ccc1NC(=O)c1cccc(I)c1C(=O)NC(C)(C)CS(C)(=O)=O	F
CC(=O)O[C@H]1CC[C@@]2(C)C(=CC[C@@H]3[C@@H]2CC[C@]2(C)C(=O)CC[C@@H]32)C1	F
c1ccc(OCC2CO2)cc1 (stereo unspecified)	F
CC(C)OS(C)(=O)=O	F

Call for entry `O=[N+]([O-])c1cc([N+](=O)[O-])c2ccccc2c1` :
F

Now the same for `CCN`
F

* * *

method.notes: qHTS assay to identify small molecule antagonists of the thyroid receptor (TR) signaling pathway - cell viability counter screen (AID 743064); note: nearly all actives have a fitted effect of over 50% in size
measurement.parameters: GH3.TRE-Luc viability, CellTiter-Fluor, 24 h; series mostly up to 70.3 µM
Results filed as inconclusive are left out. Calls of active or inactive are those of the source. The call rests on the fitted dose curve; in most records, active means well fitted cell-killing curve with a large enough effect in the repeat runs; inconclusive means weak or mixed curves, or effect the other way; inactive means no such curve, though single readings can be large or run the other way.
Can you answer with just one of these options? yes for active, no for inactive

compound	qualitative.label
COc1cc(C=O)cc2c1[C@H](COC(N)=O)[C@]1(OC(C)=O)ON2C[C@H]2[C@@H]1N2C(C)=O	yes
CC(C)(C)c1cc([N+](=O)[O-])cc(C(C)(C)C)c1O	yes

API: the following record is the query input.
Per the assay record, what outcome was assigned to `Cc1cc(C)c(C2=C(OC(=O)CC(C)(C)C)C3(CCCC3)OC2=O)c(C)c1` ?
no
